# Study System: TLR9 (Homo sapiens, UniProt Q9NR96)
# Construct: Fresh blood was collected from normal human donors; endogenous in cells
# Sequence (Q9NR96 26-1032): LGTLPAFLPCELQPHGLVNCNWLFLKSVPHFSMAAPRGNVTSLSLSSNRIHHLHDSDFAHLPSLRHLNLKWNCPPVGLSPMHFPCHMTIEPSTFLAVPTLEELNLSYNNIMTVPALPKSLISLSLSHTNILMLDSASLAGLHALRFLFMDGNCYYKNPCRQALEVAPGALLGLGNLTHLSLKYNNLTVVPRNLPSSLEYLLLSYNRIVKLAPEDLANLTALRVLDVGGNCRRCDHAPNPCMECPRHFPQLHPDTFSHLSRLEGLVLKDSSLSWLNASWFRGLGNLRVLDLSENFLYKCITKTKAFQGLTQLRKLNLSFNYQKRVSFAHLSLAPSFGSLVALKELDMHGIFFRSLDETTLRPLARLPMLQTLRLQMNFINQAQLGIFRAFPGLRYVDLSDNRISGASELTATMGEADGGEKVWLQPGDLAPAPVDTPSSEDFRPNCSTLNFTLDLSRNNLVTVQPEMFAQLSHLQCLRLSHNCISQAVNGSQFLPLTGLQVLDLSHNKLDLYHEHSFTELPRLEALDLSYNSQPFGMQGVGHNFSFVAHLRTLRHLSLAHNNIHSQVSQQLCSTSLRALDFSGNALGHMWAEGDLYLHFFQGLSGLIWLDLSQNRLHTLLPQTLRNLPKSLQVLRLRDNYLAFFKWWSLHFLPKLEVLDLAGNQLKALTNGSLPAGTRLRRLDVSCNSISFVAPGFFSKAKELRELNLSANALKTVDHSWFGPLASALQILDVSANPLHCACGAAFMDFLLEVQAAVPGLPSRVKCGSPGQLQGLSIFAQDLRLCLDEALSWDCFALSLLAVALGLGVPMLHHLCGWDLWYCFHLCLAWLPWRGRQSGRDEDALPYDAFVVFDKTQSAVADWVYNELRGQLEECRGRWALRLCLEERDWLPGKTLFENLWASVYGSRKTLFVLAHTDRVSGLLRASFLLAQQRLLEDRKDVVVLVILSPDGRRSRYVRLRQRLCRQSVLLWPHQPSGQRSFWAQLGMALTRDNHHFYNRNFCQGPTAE
# Test Protocol: huPBMC TLR9 Antagonist IFNα Assay
# Experimental Conditions: human PBMCs stimulated with ODN2216 0.3 μM, 14-16 hrs; IFNα2b AlphaLISA read-out
pIC50: −log10 of the molar value.
Property: pIC50

Compound: Cc1cc(N2CCc3c(c(C)nn3CC34CCC(N5CC[C@H](O)C5)(CC3)CC4)C2)c2cnn(C)c2n1
Inequality Operator: =
Obs Value: 6.02
//
Compound: CC(=O)NC12CCC(Cn3nc(C)c4c3CCN(c3cc(C)nc5c3cnn5C)C4)(CC1)CC2
Inequality Operator: <
Obs Value: 5.00
//
Compound: Cc1cc(N2CCc3c(c(C)nn3CC34CCC(N5CCCC5)(CC3)CC4)C2)c2cnn(C)c2n1
Inequality Operator: =
Obs Value: 6.19
//
Compound: Cc1nc(N2CCc3c(c(C)nn3CC34CCC(N5CCOCC5)(CC3)CC4)C2)c2cn[nH]c2n1
Inequality Operator: <
Obs Value: 5.00
